- assay_protocol: Acute toxicity in mice
- recorded_conditions: mouse, in vivo, ip, male CF-1 mice, survivors at 24 and 48 hours
# 1 = LD50 below 400 mg/kg (exclusive); 0 = LD50 at/above 400 mg/kg

Solved cases below.
{"compound": "CCC1OC(=O)/C=C/C(C)C(OC2OC(C)CC(N(C)C)C2O)C(C)CC(C)C(=O)/C=C/C=C/C1COC1OC(C)C(O)C(OC)C1OC (centres unmarked)", "classification": 1}
{"compound": "CC[C@H]1OC(=O)C[C@@H](O)[C@H](C)[C@@H](O[C@@H]2O[C@H](C)C[C@H](N(C)C)[C@H]2O)[C@@H](CC=O)C[C@@H](C)C(=O)/C=C/[C@]2(C)O[C@H]2[C@@H]1C [F, Rosaramicin, reference compound]", "classification": 1}
{"compound": "CC[C@H]1OC(=O)[C@H](C)[C@@H](O[C@H]2C[C@@](C)(OC)[C@@H](O)[C@H](C)O2)[C@H](C)[C@@H](O[C@@H]2O[C@H](C)C[C@H](N(C)C)[C@H]2O)[C@](C)(O)C[C@@H](C)C(=O)[C@H](C)[C@@H](O)[C@]1(C)O [E, Erythromycin, reference compound]", "classification": 1}
{"compound": "CCC1OC(=O)/C=C/C(C)C(OC2OC(C)CC(N(C)C)C2O)C(C)CC(C)C(=O)/C=C/C2OC2C1COC1OC(C)C(O)C(OC)C1OC (centres unmarked) [A, Antibiotic AR-5 component 1]", "classification": 1}

query: Decide: LD50 of CCC1OC(=O)/C=C/C(C)C(OC2OC(C)CC(N(C)C)C2O)C(C)CC(C)C(=O)/C=C/C2OC2C1(O)COC1OC(C)C(O)C(OC)C1OC (centres unmarked) [C, Antibiotic AR-5 component 2] strictly below 400 mg/kg?
result: 0

---

- Tested on: Antibiotic AR-5 Resistant strains
- assay_protocol: In vivo mouse protection test, Antibiotic AR-5 resistant strains
- Parameters: species or system male (Carworth CF-1) mice
- recorded_conditions: sc, read-out: Mean PD50
readout_kind: ED50 (mg/kg)
Give just the numeric value; mg/kg need not be written.

{"compound": "CC[C@H]1OC(=O)C[C@@H](O)[C@H](C)[C@@H](O[C@@H]2O[C@H](C)C[C@H](N(C)C)[C@H]2O)[C@@H](CC=O)C[C@@H](C)C(=O)/C=C/[C@]2(C)O[C@H]2[C@@H]1C [F, Rosaramicin, reference compound]", "ED50 (mg/kg)": 100}

Please find the next compound below.
query: Note down ED50 recorded for CC[C@H]1OC(=O)[C@H](C)[C@@H](O[C@H]2C[C@@](C)(OC)[C@@H](O)[C@H](C)O2)[C@H](C)[C@@H](O[C@@H]2O[C@H](C)C[C@H](N(C)C)[C@H]2O)[C@](C)(O)C[C@@H](C)C(=O)[C@H](C)[C@@H](O)[C@]1(C)O [E, Erythromycin, reference compound]
result: 100

---

- assay_protocol: Acute toxicity in mice
- recorded_conditions: mouse, in vivo; oral, male CF-1 mice, survivors at 24 and 48 hours
readout_kind: LD50 (mg/kg)
Could you give me the number in mg/kg? Just the number is fine.

query: Fill in LD50 for record CC[C@H]1OC(=O)C[C@@H](O)[C@H](C)[C@@H](O[C@@H]2O[C@H](C)C[C@H](N(C)C)[C@H]2O)[C@@H](CC=O)C[C@@H](C)C(=O)/C=C/[C@]2(C)O[C@H]2[C@@H]1C [F, Rosaramicin, reference compound]
result: 1300

---

- Tested on: Antibiotic AR-5 Resistant strains
- assay_protocol: In vivo mouse protection test, Antibiotic AR-5 resistant strains
- Parameters: species or system male (Carworth CF-1) mice
- recorded_conditions: sc, read-out: Mean PD50
Listed below: ED50 values for each entry.
Enter your answer as a number in mg/kg; do not include the unit.

Use these answered entries as a reference point.
{"compound": "CCC1OC(=O)/C=C/C(C)C(OC2OC(C)CC(N(C)C)C2O)C(C)CC(C)C(=O)/C=C/C2OC2C1COC1OC(C)C(O)C(OC)C1OC (stereo not drawn) [A, Antibiotic AR-5 component 1]", "recorded_result": 100}
{"compound": "CCC1OC(=O)/C=C/C(C)C(OC2OC(C)CC(N(C)C)C2O)C(C)CC(C)C(=O)/C=C/C=C/C1COC1OC(C)C(O)C(OC)C1OC (stereo not drawn)", "recorded_result": 100}

Next item in the queue.
query: In one line, give reported ED50 of the entry CCC1OC(=O)/C=C/C(C)C(OC2OC(C)CC(N(C)C)C2O)C(C)CC(C)C(=O)/C=C/C2OC2C1(O)COC1OC(C)C(O)C(OC)C1OC (stereo not drawn) [C, Antibiotic AR-5 component 2] .
result: 100

---

# maps each entry to its ED50
- System: Antibiotic AR-5 Sensitive strains
- assay_protocol: In vivo mouse protection test, Antibiotic AR-5 sensitive strains
- Set-up: species or system male (Carworth CF-1) mice
- recorded_conditions: Mus musculus; oral, Antibiotic AR-5 sensitive strains; number of strains averaged in parentheses; read-out: Mean PD50
The figure you give is taken to be in mg/kg; do not add the unit.

{"molecule": "CC[C@H]1OC(=O)C[C@@H](O)[C@H](C)[C@@H](O[C@@H]2O[C@H](C)C[C@H](N(C)C)[C@H]2O)[C@@H](CC=O)C[C@@H](C)C(=O)/C=C/[C@]2(C)O[C@H]2[C@@H]1C [F, Rosaramicin, reference compound]", "assay_target": "Antibiotic AR-5 Sensitive strains", "recorded_result": 181}

query: Please indicate ED50 recorded for CC[C@H]1OC(=O)[C@H](C)[C@@H](O[C@H]2C[C@@](C)(OC)[C@@H](O)[C@H](C)O2)[C@H](C)[C@@H](O[C@@H]2O[C@H](C)C[C@H](N(C)C)[C@H]2O)[C@](C)(O)C[C@@H](C)C(=O)[C@H](C)[C@@H](O)[C@]1(C)O [E, Erythromycin, reference compound]
result: 135

query: Give ED50 for the following molecule: CCC1OC(=O)/C=C/C(C)C(OC2OC(C)CC(N(C)C)C2O)C(C)CC(C)C(=O)/C=C/C2OC2C1COC1OC(C)C(O)C(OC)C1OC (centres unmarked) [A, Antibiotic AR-5 component 1]
result: 4.1

query: Report ED50 for CCC1OC(=O)/C=C/C(C)C(OC2OC(C)CC(N(C)C)C2O)C(C)CC(C)C(=O)/C=C/C=C/C1COC1OC(C)C(O)C(OC)C1OC (centres unmarked)
result: 3.8

query: Using the record for CCC1OC(=O)/C=C/C(C)C(OC2OC(C)CC(N(C)C)C2O)C(C)CC(C)C(=O)/C=C/C2OC2C1(O)COC1OC(C)C(O)C(OC)C1OC (centres unmarked) [C, Antibiotic AR-5 component 2] , state its measured ED50.
result: 35.8

---

- assay_protocol: Acute toxicity in mice
- recorded_conditions: mouse, in vivo, iv, male CF-1 mice, survivors at 24 and 48 hours
Property: LD50; scope: individual molecules
Please reply with the bare figure in mg/kg and do not write the unit itself.

Some solved entries appear below for comparison.
{"molecule": "CCC1OC(=O)/C=C/C(C)C(OC2OC(C)CC(N(C)C)C2O)C(C)CC(C)C(=O)/C=C/C2OC2C1(O)COC1OC(C)C(O)C(OC)C1OC (centres unmarked) [C, Antibiotic AR-5 component 2]", "readout_kind": "LD50", "value_unit": "mg/kg", "recorded_result": 310}
{"molecule": "CC[C@H]1OC(=O)C[C@@H](O)[C@H](C)[C@@H](O[C@@H]2O[C@H](C)C[C@H](N(C)C)[C@H]2O)[C@@H](CC=O)C[C@@H](C)C(=O)/C=C/[C@]2(C)O[C@H]2[C@@H]1C [F, Rosaramicin, reference compound]", "readout_kind": "LD50", "value_unit": "mg/kg", "recorded_result": 175}
{"molecule": "CCC1OC(=O)/C=C/C(C)C(OC2OC(C)CC(N(C)C)C2O)C(C)CC(C)C(=O)/C=C/C2OC2C1COC1OC(C)C(O)C(OC)C1OC (centres unmarked) [A, Antibiotic AR-5 component 1]", "readout_kind": "LD50", "value_unit": "mg/kg", "recorded_result": 140}
{"molecule": "CCC1OC(=O)/C=C/C(C)C(OC2OC(C)CC(N(C)C)C2O)C(C)CC(C)C(=O)/C=C/C=C/C1COC1OC(C)C(O)C(OC)C1OC (centres unmarked)", "readout_kind": "LD50", "value_unit": "mg/kg", "recorded_result": 160}

The record that follows has no LD50 shown yet.
query: Report measured LD50; entry is CC[C@H]1OC(=O)[C@H](C)[C@@H](O[C@H]2C[C@@](C)(OC)[C@@H](O)[C@H](C)O2)[C@H](C)[C@@H](O[C@@H]2O[C@H](C)C[C@H](N(C)C)[C@H]2O)[C@](C)(O)C[C@@H](C)C(=O)[C@H](C)[C@@H](O)[C@]1(C)O [E, Erythromycin, reference compound]
result: 260
